measurementDescription: AUC in Sprague-Dawley rat at 5 mg/kg, po
Type: ADME, organism-based
assaySetup: Sprague-Dawley, in vivo, read-out: AUC
assayReadout: AUC (µM·h)

inputSmiles: COC(=O)N[C@H](C(=O)N1CCC[C@H]1c1ncc(-c2cc(F)c3c(c2)O[C@@H](c2ccccc2)n2c-3cc3cc(-c4cnc([C@@H]5CCCN5C(=O)[C@@H](NC(=O)OC)C(C)C)[nH]4)ccc32)[nH]1)C(C)C
unitOfMeasurement: µM·h
readoutValue: 2.8

----------
measurementDescription: Cmax in Sprague-Dawley rat at 5 mg/kg, po
Format: ADME, organism-based
Parameters: dose 5 mg/kg, route oral
assaySetup: in vivo

molecule: COC(=O)N[C@H](C(=O)N1CCC[C@H]1c1ncc(-c2cc(F)c3c(c2)O[C@@H](c2ccccc2)n2c-3cc3cc(-c4cnc([C@@H]5CCCN5C(=O)[C@@H](NC(=O)OC)C(C)C)[nH]4)ccc32)[nH]1)C(C)C
Cmax [nM]: 330
--
molecule: COC(=O)N[C@H](C(=O)N1CCC[C@H]1c1ncc(-c2ccc3c(c2)OC(c2cccc(OC)c2)n2c-3cc3cc(-c4cnc([C@@H]5CCCN5C(=O)[C@@H](NC(=O)OC)C(C)C)[nH]4)ccc32)[nH]1)C(C)C (some centres not stated)
Cmax [nM]: 100

----------
System: Nonstructural protein 5A (Hepatitis C virus), Q5L478 [Y93H]
Sequence (Q5L478 entry or part of it Y93H): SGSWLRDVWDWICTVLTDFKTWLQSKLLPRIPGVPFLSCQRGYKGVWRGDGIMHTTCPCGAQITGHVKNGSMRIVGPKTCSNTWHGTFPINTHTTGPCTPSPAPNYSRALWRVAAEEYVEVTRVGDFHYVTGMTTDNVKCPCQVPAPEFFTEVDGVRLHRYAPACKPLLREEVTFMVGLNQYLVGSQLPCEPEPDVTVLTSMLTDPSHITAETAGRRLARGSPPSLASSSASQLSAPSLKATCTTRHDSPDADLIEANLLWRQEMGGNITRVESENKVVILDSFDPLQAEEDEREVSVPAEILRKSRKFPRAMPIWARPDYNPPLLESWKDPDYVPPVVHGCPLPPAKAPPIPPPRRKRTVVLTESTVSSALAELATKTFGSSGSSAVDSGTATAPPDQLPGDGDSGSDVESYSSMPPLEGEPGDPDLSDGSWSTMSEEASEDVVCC
measurementDescription: Inhibition of HCV GT1a NS5A Y93H mutant assessed as suppression of replicon RNA level by real-time PCR analysis
assaySetup: Hepatitis C virus subtype 1a

compound: COC(=O)N[C@H](C(=O)N1C[C@H](F)C[C@H]1c1ncc(-c2cc(F)c3c(c2)OC(c2cccc(OC(C)C)c2)n2c-3cc3cc(-c4cnc([C@@H]5C[C@@H](F)CN5C(=O)[C@@H](NC(=O)OC)C(C)C)[nH]4)ccc32)[nH]1)C(C)C (stereo partly specified)
EC90, nM: 0.1

compound: COC(=O)N[C@H](C(=O)N1CCC[C@H]1c1ncc(-c2ccc3c(c2)c(F)c2n3C(c3ccccc3)Oc3cc(-c4cnc([C@@H]5C[C@@H](F)CN5C(=O)[C@@H](NC(=O)OC)C(C)C)[nH]4)ccc3-2)[nH]1)C(C)C (stereo partly specified)
EC90, nM: 2

compound: COC(=O)N[C@H](C(=O)N1CCC[C@H]1c1ncc(-c2cc(F)c3c(c2)OC(c2cccc(OC)c2)n2c-3cc3cc(-c4cnc([C@@H]5CCCN5C(=O)[C@@H](NC(=O)OC)C(C)C)[nH]4)ccc32)[nH]1)C(C)C (stereo partly specified)
EC90, nM: 6

compound: CCOc1cccc(C2Oc3cc(-c4cnc([C@@H]5C[C@@H](F)CN5C(=O)[C@@H](NC(=O)OC)C(C)C)[nH]4)cc(F)c3-c3cc4cc(-c5cnc([C@@H]6C[C@@H](F)CN6C(=O)[C@@H](NC(=O)OC)C(C)C)[nH]5)ccc4n32)c1 (stereo partly specified)
EC90, nM: 0.2

compound: COC(=O)N[C@H](C(=O)N1CCC[C@H]1c1ncc(-c2ccc3c(c2)cc2n3C(c3ccc(OC(F)(F)F)cc3)Oc3cc(-c4cnc([C@@H]5C[C@@H](F)CN5C(=O)[C@@H](NC(=O)OC)C(C)C)[nH]4)cc(F)c3-2)[nH]1)C(C)C (stereo partly specified)
EC90, nM: 0.3

compound: COC(=O)N[C@H](C(=O)N1CCC[C@H]1c1ncc(-c2ccc3c(c2)OCn2c-3cc3cc(-c4cnc([C@@H]5CCCN5C(=O)[C@@H](NC(=O)OC)C(C)C)[nH]4)c(F)cc32)[nH]1)C(C)C
EC90, nM: 77

----------
targetEntity: Nonstructural protein 5A (Hepatitis C virus) (UniProt Q5L478)
measurementDescription: Inhibition of HCV GT1b NS5A assessed as suppression of replicon RNA level by real-time PCR analysis
assaySetup: Hepatitis C virus subtype 1b

compound: COC(=O)N[C@H](C(=O)N1CCC[C@H]1c1ncc(-c2ccc3c(c2)OCn2c-3cc3c(F)c(-c4cnc([C@@H]5CCCN5C(=O)[C@@H](NC(=O)OC)C(C)C)[nH]4)ccc32)[nH]1)C(C)C
unitOfMeasurement: pM
valueRelationSign: >
EC90: 500
--
compound: COC(=O)N[C@H](C(=O)N1CCC[C@H]1c1ncc(-c2cc(F)c3c(c2)OC(c2ccccc2)n2c-3cc3cc(-c4cnc([C@@H]5C[C@@H](F)CN5C(=O)[C@@H](NC(=O)OC)C(C)C)[nH]4)ccc32)[nH]1)C(C)C (mixture of isomers)
unitOfMeasurement: pM
valueRelationSign: =
EC90: 3
--
compound: COC(=O)N[C@H](C(=O)N1CCC[C@H]1c1ncc(-c2cc(F)c3c(c2)O[C@@H](c2ccccc2)n2c-3c(Cl)c3cc(-c4cnc([C@@H]5CCCN5C(=O)[C@@H](NC(=O)OC)C(C)C)[nH]4)ccc32)[nH]1)C(C)C
unitOfMeasurement: pM
valueRelationSign: =
EC90: 6
--
compound: COC(=O)N[C@H](C(=O)N1CCC[C@H]1c1ncc(-c2ccc3c(c2)cc2n3C(c3cccc(OC)c3)Oc3cc(-c4cnc([C@@H]5C[C@@H](F)CN5C(=O)[C@@H](NC(=O)OC)C(C)C)[nH]4)cc(F)c3-2)[nH]1)C(C)C (stereo not given in full)
unitOfMeasurement: pM
valueRelationSign: =
EC90: 7
--
compound: COC(=O)N[C@H](C(=O)N1CCC[C@H]1c1ncc(-c2ccc3c(c2)O[C@@H](c2ccccc2)n2c-3c(F)c3cc(-c4cnc([C@@H]5CCCN5C(=O)[C@@H](NC(=O)OC)C(C)C)[nH]4)ccc32)[nH]1)C(C)C
unitOfMeasurement: pM
valueRelationSign: =
EC90: 7

----------
targetEntity: Nonstructural protein 5A (Hepatitis C virus) (UniProt Q5L478)
Sequence (whole entry): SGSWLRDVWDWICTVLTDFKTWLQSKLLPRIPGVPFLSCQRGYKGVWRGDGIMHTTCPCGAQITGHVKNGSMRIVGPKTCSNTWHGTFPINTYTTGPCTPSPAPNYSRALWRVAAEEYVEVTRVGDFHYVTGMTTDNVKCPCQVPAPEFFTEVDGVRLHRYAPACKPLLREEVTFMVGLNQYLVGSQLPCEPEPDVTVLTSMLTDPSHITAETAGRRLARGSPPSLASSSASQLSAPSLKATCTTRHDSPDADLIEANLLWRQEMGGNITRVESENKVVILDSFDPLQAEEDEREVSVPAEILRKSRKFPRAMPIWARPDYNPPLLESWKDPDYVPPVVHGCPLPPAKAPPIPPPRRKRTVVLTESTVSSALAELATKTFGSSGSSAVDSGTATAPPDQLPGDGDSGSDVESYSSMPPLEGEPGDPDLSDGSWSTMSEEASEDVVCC
measurementDescription: Inhibition of HCV GT2a NS5A assessed as suppression of replicon RNA level by real-time PCR analysis
assaySetup: Hepatitis C virus subtype 2a
assayReadout: EC90 (nM)

molecule: COC(=O)N[C@H](C(=O)N1CCC[C@H]1c1ncc(-c2cc(F)c3c(c2)OC(c2ccccc2)n2c-3cc3cc(-c4cnc([C@@H]5C[C@@H](F)CN5C(=O)[C@@H](NC(=O)OC)C(C)C)[nH]4)ccc32)[nH]1)C(C)C (mixture of isomers)
readoutValue: 0.01
//
molecule: COC(=O)N[C@H](C(=O)N1CCC[C@H]1c1ncc(-c2ccc3c(c2)OC(c2ccccc2)n2c-3c(F)c3cc(-c4cnc([C@@H]5C[C@@H](F)CN5C(=O)[C@@H](NC(=O)OC)C(C)C)[nH]4)ccc32)[nH]1)C(C)C (mixture of isomers)
readoutValue: 0.03
//
molecule: COC(=O)N[C@H](C(=O)N1CCC[C@H]1c1nc(-c2ccc3c(c2)O[C@@H](c2ccccc2)n2c-3cc3cc(-c4c[nH]c([C@@H]5CCCN5C(=O)[C@@H](NC(=O)OC)C(C)C)n4)ccc32)c[nH]1)C(C)C
readoutValue: 0.019
//
molecule: COC(=O)N[C@H](C(=O)N1CCC[C@H]1c1ncc(-c2ccc3c(c2)OCn2c-3c(-c3ccccc3)c3cc(-c4cnc([C@@H]5CCCN5C(=O)[C@@H](NC(=O)OC)C(C)C)[nH]4)ccc32)[nH]1)C(C)C
readoutValue: 0.01
//
molecule: COC(=O)N[C@H](C(=O)N1C[C@H](F)C[C@H]1c1ncc(-c2ccc3c(c2)OC(c2ccccc2)n2c-3cc3cc(-c4cnc([C@@H]5C[C@@H](F)CN5C(=O)[C@@H](NC(=O)OC)C(C)C)[nH]4)ccc32)[nH]1)C(C)C (mixture of isomers)
readoutValue: 0.7
//
molecule: COC(=O)N[C@H](C(=O)N1CCC[C@H]1c1ncc(-c2ccc3c(c2)cc2n3[C@H](c3ccccc3)Oc3c-2ccc(-c2cnc([C@@H]4CCCN4C(=O)[C@@H](NC(=O)OC)C(C)C)[nH]2)c3F)[nH]1)C(C)C
readoutValue: 0.4
//
molecule: COC(=O)N[C@H](C(=O)N1CCC[C@H]1c1ncc(-c2ccc3c(c2)c(F)c2n3C(c3ccccc3)Oc3cc(-c4cnc([C@@H]5C[C@@H](F)CN5C(=O)[C@@H](NC(=O)OC)C(C)C)[nH]4)ccc3-2)[nH]1)C(C)C (some centres undefined)
readoutValue: 0.003
//
molecule: COC(=O)N[C@H](C(=O)N1CCC[C@H]1c1ncc(-c2ccc3c(c2)OCn2c-3cc3cc(-c4cnc([C@@H]5CCCN5C(=O)[C@@H](NC(=O)OC)C(C)C)[nH]4)ccc32)[nH]1)C(C)C
readoutValue: 0.02
//
molecule: COC(=O)N[C@H](C(=O)N1CCC[C@H]1c1ncc(-c2ccc3c(c2)cc2n3C(c3ccccc3)Oc3cc(-c4cnc([C@@H]5C[C@@H](F)CN5C(=O)[C@@H](NC(=O)OC)C(C)C)[nH]4)cc(F)c3-2)[nH]1)C(C)C (mixture of isomers)
readoutValue: 0.04
